Target: neutrophil collagenase (MMP-8) (Homo sapiens)
Construct: enzymatic activity of the catalytic domains of human stromelysin and of neutrophil collagenase
Experiment: Enzyme inhibition of the catalytic domain of neutrophil collagenase (fluorogenic substrate)
Conditions: 15 min preincubation, pH=6.5, fluorescence 328 nm (ex)/393 nm (em)
PARAMETER: IC50 (nM)

# annotated cases, reported IC50 shown
// lookup IC50 for CCC(=O)NCCC[C@H](NS(=O)(=O)c1ccc(-c2ccc(Cl)cc2)cc1)C(=O)O [Example 82]
4

// lookup IC50 for O=C(NCCC[C@H](NS(=O)(=O)c1ccc(-c2ccccc2)cc1)C(=O)O)C1CC1 [Example 161]
4

// lookup IC50 for O=C(NCCC[C@H](NS(=O)(=O)c1ccc(-c2ccc(Cl)cc2)cc1)C(=O)O)c1ccc(F)cc1F [Example 86]
4

// lookup IC50 for O=C(O)[C@@H](CCCN1Cc2ccccc2C1=O)NS(=O)(=O)c1ccc(-c2ccc(Cl)cc2)cc1 [Example 7]
2

// lookup IC50 for N#Cc1ccccc1C(=O)NCCC[C@H](NS(=O)(=O)c1ccc(-c2ccc(Cl)cc2)cc1)C(=O)O [Example 135]
8

// lookup IC50 for CN(CCC[C@H](NS(=O)(=O)c1ccc(-c2ccc(Cl)cc2)cc1)C(=O)O)Cc1ccccc1 [Example 145]
5

(1) O=C(NCCC[C@H](NS(=O)(=O)c1ccc(-c2ccccc2)cc1)C(=O)O)c1ccccc1O [Example 45]
(2) COc1cccc(C(=O)NCCC[C@H](NS(=O)(=O)c2ccc(-c3ccc(Cl)cc3)cc2)C(=O)O)c1 [Example 152]
Field: lower IC50 | Options: 1 / 2 Returns: label corresponding to the selected item.
1
(1: 4 nM, 2: 10 nM)

---

Molecular target: neutrophil collagenase (MMP-8) (Homo sapiens, UniProt P22894)
Construct: enzymatic activity of the catalytic domains of human stromelysin and of neutrophil collagenase
Sequence (P22894 100-262 limits assumed): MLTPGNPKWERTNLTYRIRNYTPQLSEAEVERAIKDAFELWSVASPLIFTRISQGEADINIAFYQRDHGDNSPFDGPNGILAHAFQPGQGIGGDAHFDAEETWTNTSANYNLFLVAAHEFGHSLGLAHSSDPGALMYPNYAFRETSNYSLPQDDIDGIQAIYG
Experiment: Enzyme inhibition of the catalytic domain of neutrophil collagenase (fluorogenic substrate)
Settings: 15 min preincubation, pH=6.5, fluorescence 328 nm (ex)/393 nm (em)
PARAMETER: IC50 (nM)

# annotated cases, reported IC50 shown
// lookup IC50 for `O=C(NCCC[C@H](NS(=O)(=O)c1ccc(-c2ccc(Cl)cc2)cc1)C(=O)O)c1ccc2ncccc2c1`
10

// lookup IC50 for `O=C(O)[C@H](CCCN1C(=O)c2ccc(Cl)cc2C1=O)NS(=O)(=O)c1ccc(-c2ccc(Cl)cc2)cc1`
10

// lookup IC50 for `O=C(NCCC[C@H](NS(=O)(=O)c1ccc(-c2ccc(Cl)cc2)cc1)C(=O)O)c1ccccc1Cl`
3

// lookup IC50 for `CC(C)(CC(=O)O)CC(=O)NCCC[C@H](NS(=O)(=O)c1ccc(-c2ccc(Cl)cc2)cc1)C(=O)O`
3

(A) Cc1cc(C)nc(NCCC[C@H](NS(=O)(=O)c2ccc(-c3ccc(Cl)cc3)cc2)C(=O)O)n1
(B) CC(C)(C)OC(=O)NCCC[C@H](NS(=O)(=O)c1ccc(-c2ccccc2)cc1)C(=O)O
(C) O=C(NCCC[C@H](NS(=O)(=O)c1ccc(-c2ccc(Cl)cc2)cc1)C(=O)O)c1ccc(C(F)(F)F)cc1F
(D) O=C(CC(C(=O)O)c1ccccc1)NCCC[C@@H](NS(=O)(=O)c1ccc(-c2ccc(Cl)cc2)cc1)C(=O)O (single isomer, unassigned) [Example 39]
I would appreciate it if you could sort these 4 molecules by IC50, starting from the smallest number. Labels, requested order.
B, C, A, D
